system-name: murine TLR7 (Mus musculus, UniProt P58681)
Construct: host or cells: HEK293 (HEK-Blue™ mTLR7)
Sequence (P58681 27-1050): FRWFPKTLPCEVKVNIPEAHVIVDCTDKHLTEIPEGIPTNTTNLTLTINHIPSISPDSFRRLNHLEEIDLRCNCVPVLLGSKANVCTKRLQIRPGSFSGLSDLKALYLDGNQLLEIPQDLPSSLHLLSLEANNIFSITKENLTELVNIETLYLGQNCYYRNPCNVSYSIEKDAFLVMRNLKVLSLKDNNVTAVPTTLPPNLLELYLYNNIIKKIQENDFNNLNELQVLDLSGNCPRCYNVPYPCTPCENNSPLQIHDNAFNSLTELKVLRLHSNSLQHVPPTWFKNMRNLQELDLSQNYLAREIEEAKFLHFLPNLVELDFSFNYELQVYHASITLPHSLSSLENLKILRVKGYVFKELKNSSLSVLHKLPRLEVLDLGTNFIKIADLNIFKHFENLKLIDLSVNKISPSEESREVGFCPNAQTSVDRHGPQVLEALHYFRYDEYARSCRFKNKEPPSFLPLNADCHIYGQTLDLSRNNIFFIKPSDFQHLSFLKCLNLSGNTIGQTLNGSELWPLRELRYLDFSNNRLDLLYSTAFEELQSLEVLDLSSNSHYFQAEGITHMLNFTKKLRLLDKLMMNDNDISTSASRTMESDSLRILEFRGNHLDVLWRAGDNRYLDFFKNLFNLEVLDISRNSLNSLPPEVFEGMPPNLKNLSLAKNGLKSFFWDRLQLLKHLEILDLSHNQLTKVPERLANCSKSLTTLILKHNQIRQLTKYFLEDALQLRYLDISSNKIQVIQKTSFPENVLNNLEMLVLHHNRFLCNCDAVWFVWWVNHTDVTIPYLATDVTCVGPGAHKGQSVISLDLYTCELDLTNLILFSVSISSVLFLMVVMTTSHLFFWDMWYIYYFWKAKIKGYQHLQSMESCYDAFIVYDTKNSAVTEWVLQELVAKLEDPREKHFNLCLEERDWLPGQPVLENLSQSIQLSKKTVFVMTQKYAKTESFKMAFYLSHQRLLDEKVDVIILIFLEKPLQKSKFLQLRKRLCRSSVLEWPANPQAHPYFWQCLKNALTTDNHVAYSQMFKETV
measurement-description: HEK-Blue mTLR7 NF-κB/AP-1 SEAP reporter assay
Assay type: cell-based
test-conditions: HEK-Blue mTLR7 cells, 10 μg/mL to 10 pg/ml, 24 hours, OD at 655 nm, FIG. 2
recorded-endpoint: ability to activate mTLR7

CCCCCCCCCCCCCCCC(=O)N[C@@H](CSCC(COC(=O)CCCCCCCCCCCCCCC)OC(=O)CCCCCCCCCCCCCCC)C(=O)N[C@@H](CO)C(=O)N[C@@H](CCCCN)C(=O)N[C@@H](CCCCNC(=O)c1ccc(Cn2c(O)nc3c(N)nc(NCCCC)nc32)cc1)C(=O)N[C@@H](CCCCN)C(=O)N[C@@H](CCCCN)C(=O)O (stereo partly drawn) [CL536] | activate mTLR7
CCCCCCCCCCCCCCCC(=O)OCC(CSC[C@H](N)C(=O)N[C@@H](CO)C(=O)N[C@@H](CCCCN)C(=O)N[C@@H](CCCCNC(=O)c1ccc(Cn2c(O)nc3c(N)nc(NCCCC)nc32)cc1)C(=O)N[C@@H](CCCCN)C(=O)N[C@@H](CCCCN)C(=O)O)OC(=O)CCCCCCCCCCCCCCC (stereo partly drawn) [CL531] | activate mTLR7
CCCCCCCCCCCCCCCC(=O)N[C@@H](CSCC(COC(=O)CCCCCCCCCCCCCCC)OC(=O)CCCCCCCCCCCCCCC)C(=O)N[C@@H](CO)C(=O)N[C@@H](CCCCNC(=O)c1ccc(Cn2c(O)nc3c(N)nc(NCCCC)nc32)cc1)C(=O)N[C@@H](CCCCN)C(=O)N[C@@H](CCCCN)C(=O)N[C@@H](CCCCN)C(=O)O (stereo partly drawn) [CL537] | activate mTLR7

Data origin, for the record: patent US9295732B2
